Measured self-cleavage, listed per entry.
B1: HDV Ribozyme (parent)
chain: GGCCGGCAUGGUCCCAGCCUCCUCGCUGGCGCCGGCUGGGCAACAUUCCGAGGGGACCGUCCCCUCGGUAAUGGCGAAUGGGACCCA

Variants of: B1
Test: self-cleavage, relative activity (ratio to wild type); higher = more cleavage; co-transcriptional
QUANTITY NAME: self-cleavage

U46A A70G :: 1.01
U37C C62A :: 1.05
G53A C63A :: 0.819
U23G C49U :: 0.867
G25U :: 0.177
G52U C66U :: 0.737
C58U G67A :: 0.909
C32U C33U :: 0.166
U9C A16U :: 1.08
G29U G55C :: 0.0692
G1U A42G :: 0.403
G31U G73U :: 0.171
G2U U46C :: 0.0213
G81C G82U :: 0.287
G28A U46C :: 0.0594
G11U C61G :: 0.315
G1A G10U :: 0.153
A71U G81C :: 0.345
C21U C84G :: 0.122
C26A G74A :: 0.573
C7A G76C :: 0.988
C48U G52A :: 0.931
C3U A8G :: 0.554
G5A C61G :: 0.166
C19G G74U :: 0.0601
C3U C19G :: 0.0171
U9A G52A :: 0.99
C3A C32U :: 0.119
C24U G54U :: 0.618
C21G U72A :: 0.0723
C15U G74C :: 0.185
G10U C66G :: 0.717
G10C C41A :: 0.767
U23A G34U :: 0.149
G31U A83G :: 0.16
G10A U20A :: 0.0831
G11C G68C :: 0.0831
C32U G35A :: 0.326
G40C U46G :: 0.0831
G5C A42U :: 0
C58U U72G :: 0.431
C64G C86G :: 0.859
C49A C64U :: 0.831
G5A C44G :: 0.0369
G11C U12A :: 0
A16G G40A :: 1.13
C58A G59A :: 1.1
G1A C22U :: 0.0779
C30U G50A :: 0.728
C18G U27G :: 0.128
G10A A77G :: 0.53
C32U A51C :: 0.541
G2C C64U :: 0.0219
G53U A70G :: 1.08
C4U G50C :: 0.917
G40U A71G :: 0.46
G34U G81U :: 0.18
C33G G81A :: 0.128
A87G :: 0.984
A16G C41G :: 0.623
U37C G54U :: 1.02
G25C C41U :: 0.0707
C36A C63U :: 0.177
G17A G38C :: 0.0791
G29U A70U :: 0.0923
G76A A78C :: 0.242
U20A C41U :: 0
G10C C44A :: 0.615
C14G U47G :: 0.383
G34U C48G :: 0.151
C21G A42G :: 0.0573
C3G U47C :: 0.54
U9A G28U :: 0.0898
G35C G38A :: 0.155
A77C U79G :: 0.151
C26G G50U :: 1.05
C48G C75A :: 0.175
C44A C66A :: 0.628
C32A G39C :: 0.166
C18A G50U :: 0.197
C61G G82C :: 0.233
C62A A83U :: 0.494
G11U C22U :: 0.103
A8U C75A :: 0
C62G C75G :: 0.26
C24U G31A :: 0.169
U20G C66U :: 0.148
C33G U65A :: 0.156
C32A G82U :: 0.104
C7G U20C :: 0
G67C G73C :: 0.212
